Target: human KDR (VEGFR2) on cells (human, UniProt P35968 20-1356); also: test concentration or dose not given here
Sequence (P35968 20-1356): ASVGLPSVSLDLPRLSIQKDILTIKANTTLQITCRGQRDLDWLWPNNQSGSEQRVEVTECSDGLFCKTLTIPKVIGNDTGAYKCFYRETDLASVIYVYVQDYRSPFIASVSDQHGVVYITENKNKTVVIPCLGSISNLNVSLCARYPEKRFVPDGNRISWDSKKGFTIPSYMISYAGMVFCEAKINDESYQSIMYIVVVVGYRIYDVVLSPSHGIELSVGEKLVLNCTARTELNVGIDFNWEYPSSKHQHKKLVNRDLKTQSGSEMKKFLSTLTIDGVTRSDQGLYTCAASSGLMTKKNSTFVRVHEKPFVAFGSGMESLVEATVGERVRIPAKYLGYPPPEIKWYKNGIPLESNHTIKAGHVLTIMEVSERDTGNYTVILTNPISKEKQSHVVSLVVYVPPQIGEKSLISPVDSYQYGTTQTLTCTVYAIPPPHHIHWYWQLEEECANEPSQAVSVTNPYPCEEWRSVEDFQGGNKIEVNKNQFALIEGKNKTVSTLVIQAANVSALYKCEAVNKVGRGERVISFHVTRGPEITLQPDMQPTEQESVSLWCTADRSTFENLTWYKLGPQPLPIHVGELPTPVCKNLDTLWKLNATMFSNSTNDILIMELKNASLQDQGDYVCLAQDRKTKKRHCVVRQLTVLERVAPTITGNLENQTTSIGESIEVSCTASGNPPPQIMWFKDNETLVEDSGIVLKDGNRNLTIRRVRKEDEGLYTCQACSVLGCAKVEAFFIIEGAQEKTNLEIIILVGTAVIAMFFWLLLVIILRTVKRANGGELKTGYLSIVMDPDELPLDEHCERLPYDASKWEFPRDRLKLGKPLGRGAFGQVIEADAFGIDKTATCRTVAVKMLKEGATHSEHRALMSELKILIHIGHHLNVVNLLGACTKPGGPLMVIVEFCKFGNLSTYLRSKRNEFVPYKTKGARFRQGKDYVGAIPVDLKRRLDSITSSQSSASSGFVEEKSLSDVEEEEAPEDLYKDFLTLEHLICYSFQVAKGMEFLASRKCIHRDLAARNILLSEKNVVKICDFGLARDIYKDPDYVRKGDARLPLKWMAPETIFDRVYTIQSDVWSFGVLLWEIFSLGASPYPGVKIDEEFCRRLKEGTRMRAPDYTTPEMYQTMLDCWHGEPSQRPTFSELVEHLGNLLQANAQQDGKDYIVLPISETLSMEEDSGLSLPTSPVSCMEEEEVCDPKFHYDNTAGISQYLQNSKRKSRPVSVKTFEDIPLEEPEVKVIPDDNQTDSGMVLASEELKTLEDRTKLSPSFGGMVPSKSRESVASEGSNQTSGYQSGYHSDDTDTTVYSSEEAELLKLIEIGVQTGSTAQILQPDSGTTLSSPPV
Experiment: cell-based or functional assay
Reported % Inhibition of VEGF165-mediated pTyr Activity, n = 3 values follow for various binders
Give the value in % but do not write % after it.

Example results:
binder: anti-KDR monoclonal antibody 32G7 (antibody, V domains shown, Fully human mAb from XenoMouse (IgG2 or IgG4 strain); hybridoma supernatant) VH: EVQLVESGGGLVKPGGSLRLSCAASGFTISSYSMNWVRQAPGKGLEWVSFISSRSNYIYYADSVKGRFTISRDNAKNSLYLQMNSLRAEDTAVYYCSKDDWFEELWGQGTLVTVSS VL: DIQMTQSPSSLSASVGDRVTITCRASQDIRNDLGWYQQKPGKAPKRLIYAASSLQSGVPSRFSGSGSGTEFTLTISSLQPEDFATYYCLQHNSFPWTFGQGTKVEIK
observed: 11
//
binder: anti-KDR monoclonal antibody 1G6 (antibody, V domains shown, Fully human mAb from XenoMouse (IgG2 or IgG4 strain); tested here as hybridoma supernatant) VH: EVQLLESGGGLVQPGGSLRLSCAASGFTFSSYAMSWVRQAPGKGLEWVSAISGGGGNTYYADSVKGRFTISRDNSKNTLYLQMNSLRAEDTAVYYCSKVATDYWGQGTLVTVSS VL: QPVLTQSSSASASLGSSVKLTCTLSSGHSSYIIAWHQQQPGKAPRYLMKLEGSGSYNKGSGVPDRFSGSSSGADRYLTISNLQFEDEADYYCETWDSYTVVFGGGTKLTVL
observed: 58

# input Entry anti-KDR monoclonal antibody 24C9 (antibody, V domains shown, Fully human mAb from XenoMouse (IgG2 or IgG4 strain); hybridoma supernatant) VH: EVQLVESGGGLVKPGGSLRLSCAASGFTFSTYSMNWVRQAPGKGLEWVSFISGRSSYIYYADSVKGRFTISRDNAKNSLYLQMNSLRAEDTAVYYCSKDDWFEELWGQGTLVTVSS VL: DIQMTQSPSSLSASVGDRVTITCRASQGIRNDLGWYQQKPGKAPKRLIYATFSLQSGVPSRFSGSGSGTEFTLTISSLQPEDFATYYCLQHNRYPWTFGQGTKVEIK has what % Inhibition of VEGF165-mediated pTyr Activity, n = 3?
# output 38
